Source of measurements: ChEMBL document CHEMBL3860104

# assay_overview: Volume of distribution at steady state in Beagle dog at 0.5/1 mg/kg, iv or 0.5 mg/kg, po by LC/MS-MS method
# Assay type: ADME, organism-based, Canis lupus familiaris
# condition_description: in vivo, read-out: Vdss
metric: Vd (L/kg)

a = CN1CCC(C)(C2CC(=O)N(CCOc3ccc(F)c(C#N)c3)C2)CC1.Cl (racemic)
b = CC1([C@@H]2CC(=O)N(CCOc3ccc(F)c(C#N)c3)C2)CCS(=O)(=O)CC1
Hi there, can you help? I need to know whether a or b has lower measured Vd. Refer to your chosen item by its label in the answer. b
(b: 1.3 L/kg, a: 2.5 L/kg)
